# reported pIC50; entries follow
Biological target: PD-1/PD-L1 (Homo sapiens)
Construct: made in house; host or cells: HEK293T
Sequence (Q9NZQ7 with tags, fused parts or gaps): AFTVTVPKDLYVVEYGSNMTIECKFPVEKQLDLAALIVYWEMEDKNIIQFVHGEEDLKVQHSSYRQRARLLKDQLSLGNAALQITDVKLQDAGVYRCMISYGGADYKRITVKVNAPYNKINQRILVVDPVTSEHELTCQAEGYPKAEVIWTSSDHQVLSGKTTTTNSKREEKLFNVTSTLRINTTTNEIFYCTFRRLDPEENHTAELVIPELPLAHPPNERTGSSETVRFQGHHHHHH
Assay: PD-1/PD-L1 Homogenous Time-Resolved Fluorescence (HTRF) binding assay
Conditions: PD-L1-His 10 nM, PD-1-Ig 20 nM; value given as range class; read-out: Range or IC50
pIC50: −log10 of the molar value.

May I ask what pIC50 has been recorded for CC(=O)NC1CCN(CCCOc2cccc(-c3cccc(COc4cc(OCc5cncc(C#N)c5)c(CN5CCCC[C@H]5C(=O)O)cc4Cl)c3C)c2Cl)CC1 [Example 1078] ?
8.00 to 9.68

Now the same for Cc1c(COc2cc(OCc3cncc(C#N)c3)c(CN3CCCC[C@H]3C(=O)O)cc2Cl)cccc1-c1cccc(O[C@H](C)CCN2CC[C@@H](O)C2)c1Cl [Example 1523]
8.00 to 9.68

Cool, now Cc1c(COc2cc(OCc3cncc(C#N)c3)c(CN3CCCC[C@H]3C(=O)O)cc2Cl)cccc1-c1cccc(C(=O)NCCN2CCS(=O)(=O)CC2)c1C [Example 4004]
7.00 to 8.00
